- Measured On: IRAK3-ePL (Homo sapiens, UniProt Q9Y616)
- Construct: expressed in transfected cells; host or cells: 293T CRBN OE/GSPT1 G575N KI cells, lentiviral transduction, puromycin selected
- Test Description: IRAK3-ePL overexpressing degradation assay (InCELL Hunter luminescence, dose response)
- Type: cell-based
- Stated Conditions: lowest percentage of target protein remaining following compound treatment
Attribute Measured: IRAK3 ePL degradation Ymin (%)

// below: answered compounds
1. Cc1cc(-c2cnc(Nc3cnn(C4CCN(CCN5CCN(c6ccc7c(C8CCC(=O)NC8=O)nn(C)c7c6)CC5)CC4)c3)c3nccn23)c(F)cc1F (stereo not shown) [Compound 39]    32
2. Cc1cc(-c2cnc(Nc3cnn(C4CCN(CCN5CCN(c6ccc(C7CCC(=O)N(C)C7=O)cc6)CC5)CC4)c3)c3nccn23)c(F)cc1F (stereo not shown) [Compound 55]    84
3. Cc1cc(-c2cnc(Nc3cnn(C4CCN(CC(=O)N5CCN(c6ccc7c(c6)C(=O)N(C6CCC(=O)NC6=O)C7)CC5)CC4)c3)c3nccn23)c(F)cc1F (stereo not shown) [Compound 18]    22
4. Cc1ccc(F)c(-c2cnc(Nc3cnn(C4CCN(CCN5CCN(c6ccc(C7CCC(=O)NC7=O)cc6)CC5)CC4)c3)c3nccn23)c1 (stereo not shown) [Compound 36]    24
5. Cc1cccc(-c2cnc(Nc3cnn([C@H]4CC[C@@H](CCN5CCN(c6ccc(C7CCC(=O)NC7=O)cc6)CC5)CC4)c3)c3nccn23)c1 (stereo partly shown) [Compound 45]    26
6. Cc1cc(-c2cnc(N[C@@H]3CCN(C4CCN(CCN5CCN(c6ccc(C7CCC(=O)NC7=O)cc6)CC5)CC4)C3)c3nccn23)c(F)cc1F (stereo partly shown) [Compound 60]    92
7. Cc1cc(-c2cnc(Nc3cnn(C4CCN(CCN5CCN(c6ccc(C7CCC(=O)NC7=O)c(Cl)c6)CC5)CC4)c3)c3nccn23)c(F)cc1F (stereo not shown) [Compound 54]    28
8. O=C1CCC(c2ccc(N3CCN(CCN4CCC(n5cc(Nc6ncc(-c7cc8c(cc7F)OCCN8)n7ccnc67)cn5)CC4)CC3)cc2)C(=O)N1 (stereo not shown) [Compound 51]    24
9. Cc1cccc(-c2cnc(Nc3cnn([C@H]4CC[C@H](CCN5CCN(c6ccc(C7CCC(=O)NC7=O)cc6)CC5)CC4)c3)c3nccn23)c1 (stereo partly shown) [Compound 64]    25
10. Cc1cc(-c2cnc(Nc3cnn(C4CCN(CCN5CCN(c6ccc(C7CCC(=O)NC7=O)cc6)[C@@H](C)C5)CC4)c3)c3nccn23)c(F)cc1F (stereo partly shown) [Compound 44]    26

[I] Cc1cccc(-c2cnc(Nc3cnn(C4CCN(CC(=O)N5CCN(c6ccc7c(c6)CN(C6CCC(=O)NC6=O)C7=O)CC5)CC4)c3)c3nccn23)c1 (stereo not shown) [Compound 19]
[II] Cc1cc(-c2cnc(Nc3cnn(C4CCN(CCN5CCN(c6ccc(C7CCC(=O)NC7=O)cc6)CC5)CC4)c3)c3ncc(C)n23)c(F)cc1F (stereo not shown) [Compound 61]
-- ask Given the listed items, does I or II have the lesser reported IRAK3 ePL degradation Ymin? Provide the label of your selected option as the answer.
-- reply I
(I: 18%, II: 41%)
